Tested on: E. faecalis ATCC 29212
Assay type: cell-based, Enterococcus faecalis
Conditions: ATCC 29212, 20 h
Description: All minimum inhibitory concentrations (MICs) were determined according to the Clinical and Standards Laboratory Institute (CLSI) guidelines. In brief, agar plates were inoculated from glycerol stocks and incubated overnight at 35 °C. Peptide DMSO stocks were dispensed into 96-well round-bottom plates using a TECAN D300e dispenser. […] Images of all plates were recorded, and MIC was assessed visually.
Where a SMILES comes first, the peptide text is derived from it. [ ]: non-standard residue; d: D form. The star is where a group is joined. d(aIle) = CC[C@H](C)[C@@H](N)C(=O)O; dDab = NCC[C@@H](N)C(=O)O; Octanoyl = CCCCCCCC(=O)*; Dab = NCC[C@H](N)C(=O)O
Give measured MIC for each item. Keep answers brief.
One number for each entry, in mg/L.

Count: 2. Required value per item: MIC.
1. CCCCCCCC(=O)N[C@@H](C(=O)N[C@H](CCN)C(=O)NCC(=O)N[C@H](CO)C(=O)N[C@H](Cc1c[nH]c2ccccc12)C(=O)N[C@@H](CO)C(=O)N[C@@H](CCN)C(=O)N[C@H](CCN)C(=O)N[C@@H](Cc1ccccc1)C(=O)N[C@@H](CCC(=O)O)C(=O)N[C@H](C(=O)N[C@@H](C(=O)N[C@@H](C)C(=O)O)[C@@H](C)CC)C(C)C)C(C)C [Oct-TriA1] (Octanoyl-[dV][dDab]G[dS][dW]S[Dab][dDab]FEV[d(aIle)]A-OH)
2. CCCCCCCC(=O)N[C@@H](C(=O)N[C@H](CCN)C(=O)NCC(=O)N[C@H](CO)C(=O)N[C@H](Cc1c[nH]c2ccccc12)C(=O)N[C@@H](CO)C(=O)N[C@@H](CCN)C(=O)N[C@H](CCN)C(=O)N[C@H](C(=O)N[C@@H](CCC(=O)O)C(=O)N[C@H](C(=O)N[C@@H](C(=O)N[C@@H](C)C(=O)O)[C@@H](C)CC)C(C)C)[C@@H](C)CC)C(C)C [Oct-Ile9] (Octanoyl-[dV][dDab]G[dS][dW]S[Dab][dDab]IEV[d(aIle)]A-OH)

Response given:
1. 32
2. 64

----------
Please provide measured MIC for the entries that follow.
Tested on: S. aureus UAMS-1625
Assay type: cell-based, Staphylococcus aureus
Conditions: S. aureus UAMS-1625 (BV18); CLSI broth dilution, cation-adjusted Mueller Hinton broth, 20 h, 35 °C, read visually
Description: All minimum inhibitory concentrations (MICs) were determined according to the Clinical and Standards Laboratory Institute (CLSI) guidelines. In brief, agar plates were inoculated from glycerol stocks and incubated overnight at 35 °C. Peptide DMSO stocks were dispensed into 96-well round-bottom plates using a TECAN D300e dispenser. […] Images of all plates were recorded, and MIC was assessed visually.
Where a SMILES comes first, the peptide text is derived from it. [ ]: non-standard residue; d: D form. The star is where a group is joined. d(aIle) = CC[C@H](C)[C@@H](N)C(=O)O; dDab = NCC[C@@H](N)C(=O)O; Octanoyl = CCCCCCCC(=O)*; Dab = NCC[C@H](N)C(=O)O
Numbers only, in µg/mL.

• CCCCCCCC(=O)N[C@H](Cc1ccccc1)C(=O)N[C@H](CCN)C(=O)N[C@@H](C(=O)N[C@H](CO)C(=O)N[C@H](Cc1c[nH]c2ccccc12)C(=O)N[C@@H](CO)C(=O)N[C@@H](CO)C(=O)N[C@H](CCN)C(=O)N[C@@H](Cc1c[nH]c2ccccc12)C(=O)N[C@@H](CO)C(=O)N[C@H](C(=O)N[C@@H](C(=O)N[C@@H](CCN)C(=O)O)[C@@H](C)CC)C(C)C)[C@H](C)CC [Oct-TriD] (Octanoyl-[dF][dDab][dI][dS][dW]SS[dDab]WSV[d(aIle)][Dab]-OH) = 16

# context switch: different compound, same MIC
Challenge: Request body: readout MIC, system S. aureus UAMS-1625, query CCCCCCCC(=O)N[C@@H](C(=O)N[C@H](CCN)C(=O)NCC(=O)N[C@H](CO)C(=O)N[C@H](Cc1c[nH]c2ccccc12)C(=O)N[C@@H](CO)C(=O)N[C@@H](CCN)C(=O)N[C@H](CCN)C(=O)N[C@@H](Cc1ccccc1)C(=O)N[C@@H](CCC(=O)O)C(=O)N[C@H](C(=O)N[C@@H](C(=O)N[C@@H](C)C(=O)O)[C@@H](C)CC)C(C)C)C(C)C [Oct-TriA1] (Octanoyl-[dV][dDab]G[dS][dW]S[Dab][dDab]FEV[d(aIle)]A-OH) . Return the value.
Response given: 32

// data source = paper PMC11106739
